For each record, write down the corresponding Kd.
target: TDP-43-RRM (UniProt Q13148 104-262); assay: EMSA; EMSA: 10 mM HEPES pH 8.0, 50 mM KCl, 1 mM EDTA, 5% glycerol, 1 mM DTT, 40 U/ml RNase inhibitor, 4 C, 1 h; 20 fmol probe in 20 ul; 8% native PAGE; conditions: protein: recombinant; label: 5'-32P
Sequence (Q13148 104-262): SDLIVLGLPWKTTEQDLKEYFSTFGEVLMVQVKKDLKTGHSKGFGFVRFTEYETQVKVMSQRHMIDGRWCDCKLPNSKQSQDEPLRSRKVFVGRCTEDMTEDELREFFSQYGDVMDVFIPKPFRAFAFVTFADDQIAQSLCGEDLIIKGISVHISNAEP
// return numeric value only (unit: nM, not printed)

Item under review: CAGCAGCAGCAGCAGCAGCAG (ssRNA) [(CAG)7-0m1A] . Reported Kd?
380

Queued: CAGCAGCAGCAGCAGCAGCAG (ssRNA, m1A at position 11) [(CAG)7-1m1A]
180
